Target sequence: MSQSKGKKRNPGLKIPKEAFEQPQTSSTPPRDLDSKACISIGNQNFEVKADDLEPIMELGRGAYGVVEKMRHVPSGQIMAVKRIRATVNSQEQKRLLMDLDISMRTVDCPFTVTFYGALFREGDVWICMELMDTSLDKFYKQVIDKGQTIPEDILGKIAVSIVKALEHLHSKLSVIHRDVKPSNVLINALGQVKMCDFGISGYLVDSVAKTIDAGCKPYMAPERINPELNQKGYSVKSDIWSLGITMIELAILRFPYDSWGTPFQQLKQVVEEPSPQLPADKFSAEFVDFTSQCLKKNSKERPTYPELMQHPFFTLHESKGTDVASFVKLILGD
measurement.type: IC50

Task: What measured IC50 goes with C[C@@H]1CCC(c2cc3c4c(cncc4c2)[C@@H](C)C3)=C1C=O [323-2, (15S,2R)-Delavatine A] ?
Output: > 20 µM

Task: What measured IC50 goes with C[C@@H]1CCC(c2cc3c4c(cncc4c2)[C@H](C)C3)=C1C=O [323-1, (15R,2R)-Delavatine A] ?
Output: > 20 µM
